Reference source for all entries: ChEMBL document CHEMBL4699485

System Under Test: PI3-kinase p110-alpha/p85-alpha (Homo sapiens)
Measurement Protocol: Inhibition of recombinant human full-length N-terminal His-tagged p110 alpha/p85 alpha expressed in baculovirus expression system using PIP2 as substrate preincubated for 15 mins followed by substrate addition and measured after 60 mins by ADP HiLyte 647 tracer bound ADP2 antibody-Tb conjugate based HTRF assay
Entries and their pIC50
// pIC50: -log10(molar conc.)

Input `CN(C)C(=O)c1ccc(Oc2nc(-c3cccc(O)c3)nc(N3CCOCC3)n2)cc1` , output reported pIC50. 8.00

Check the records and state pIC50 for `CN(C)C(=O)c1ccc(Oc2nc(-c3ccc(N)nc3)nc(N3CCOCC3)n2)cc1` 6.68

----------
Measurement Protocol: AUC in Swiss mouse at 10 mg/kg, po via gavage by LC-MS/MS analysis
Assay type: ADME, organism-based
Set-up: dose 10 mg/kg
Particulars: in vivo
Metric Name: AUC
Your answer should be a number followed by the unit of measure.

// Input: `CN(C)C(=O)c1ccc(Oc2nc(-c3cnc(N)s3)nc(N3CCOCC3)n2)cc1` . Output its AUC only. 76.4 µM·h

----------
System Under Test: Voltage-gated inwardly rectifying potassium channel KCNH2 (Homo sapiens)
Sequence (Q12809 whole entry): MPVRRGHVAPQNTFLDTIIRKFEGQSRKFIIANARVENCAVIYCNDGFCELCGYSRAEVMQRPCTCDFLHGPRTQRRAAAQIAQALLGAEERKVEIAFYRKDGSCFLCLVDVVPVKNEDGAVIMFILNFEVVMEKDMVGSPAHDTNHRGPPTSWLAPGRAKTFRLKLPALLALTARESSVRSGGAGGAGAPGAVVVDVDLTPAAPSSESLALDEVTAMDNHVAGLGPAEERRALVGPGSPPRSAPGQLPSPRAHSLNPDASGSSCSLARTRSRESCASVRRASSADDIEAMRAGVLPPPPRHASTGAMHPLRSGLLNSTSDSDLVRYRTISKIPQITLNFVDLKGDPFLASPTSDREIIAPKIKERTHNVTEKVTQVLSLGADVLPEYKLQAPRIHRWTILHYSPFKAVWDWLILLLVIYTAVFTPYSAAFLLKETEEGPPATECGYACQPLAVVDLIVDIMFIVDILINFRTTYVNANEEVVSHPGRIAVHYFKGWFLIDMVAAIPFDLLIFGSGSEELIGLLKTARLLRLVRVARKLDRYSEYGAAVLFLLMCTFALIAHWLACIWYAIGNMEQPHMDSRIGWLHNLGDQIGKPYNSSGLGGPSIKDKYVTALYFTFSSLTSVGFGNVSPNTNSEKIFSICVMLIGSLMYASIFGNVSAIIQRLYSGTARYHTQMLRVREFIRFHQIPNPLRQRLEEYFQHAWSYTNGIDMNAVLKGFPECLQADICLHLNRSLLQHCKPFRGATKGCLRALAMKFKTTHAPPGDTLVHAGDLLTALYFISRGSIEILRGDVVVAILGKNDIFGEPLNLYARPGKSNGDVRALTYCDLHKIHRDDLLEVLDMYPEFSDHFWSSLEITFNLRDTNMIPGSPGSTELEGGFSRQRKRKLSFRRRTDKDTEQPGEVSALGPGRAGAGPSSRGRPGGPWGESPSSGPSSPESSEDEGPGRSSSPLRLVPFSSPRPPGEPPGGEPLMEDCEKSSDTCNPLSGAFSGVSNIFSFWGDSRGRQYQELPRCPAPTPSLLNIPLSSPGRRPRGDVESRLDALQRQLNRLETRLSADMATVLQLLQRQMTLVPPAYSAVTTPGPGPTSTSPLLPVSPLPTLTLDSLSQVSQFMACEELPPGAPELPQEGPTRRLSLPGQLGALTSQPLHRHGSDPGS
Measurement Protocol: Inhibition of human ERG by patch-clamp assay
pIC50: −log10 of the molar value.
Parameter pIC50: see the listing below.

Some compounds with recorded pIC50:
{"Chem Smiles": "CN(C)C(=O)c1ccc(Oc2nc(-c3ccnc4[nH]ccc34)nc(N3CCOCC3)n2)cc1", "pIC50": "< 5.00"}
{"Chem Smiles": "CN(C)C(=O)c1ccc(Oc2nc(-c3ccc(N)nc3)nc(N3CCOCC3)n2)cc1", "pIC50": "< 6.00"}

Could you now consider this next compound?
Please list pIC50 recorded for the compound `CN(C)C(=O)c1ccc(Oc2nc(-c3cnc(N)s3)nc(N3CCOCC3)n2)cc1` < 5.00

----------
Measurement Protocol: Elimination half life in Swiss mouse at 3 mg/kg, po via gavage by LC-MS/MS analysis
Format: ADME, organism-based
Particulars: in vivo, read-out: beta t1/2 (converted)
Metric Name: half-life (h)
Respond with the bare value in h.

Worked cases, answers included:
{"Chem Smiles": "CN(C)C(=O)c1ccc(Oc2nc(-c3ccc(N)nc3)nc(N3CCOCC3)n2)cc1", "Unit Text": "h", "Data Value": 2.7}
{"Chem Smiles": "CN(C)C(=O)c1ccc(Oc2nc(-c3cnc(N)s3)nc(N3CCOCC3)n2)cc1", "Unit Text": "h", "Data Value": 2.7}

Give recorded half-life. `CN(C)C(=O)c1ccc(Oc2nc(-c3ccnc4[nH]ccc34)nc(N3CCOCC3)n2)cc1` 2.8

----------
Entries and their Cmax
Measurement Protocol: Cmax in Swiss mouse at 3 mg/kg, po via gavage by LC-MS/MS analysis
Format: ADME, organism-based
Parameters: route oral, dose 3 mg/kg
Particulars: in vivo
State the answer as a number, implicitly in µM.

Use these answered entries as a reference point.
{"Chem Smiles": "CN(C)C(=O)c1ccc(Oc2nc(-c3cnc(N)s3)nc(N3CCOCC3)n2)cc1", "Data Value": 6.9}
{"Chem Smiles": "CN(C)C(=O)c1ccc(Oc2nc(-c3ccnc4[nH]ccc34)nc(N3CCOCC3)n2)cc1", "Data Value": 3.08}

Proceed to the following item.
For the molecule `CN(C)C(=O)c1ccc(Oc2nc(-c3ccc(N)nc3)nc(N3CCOCC3)n2)cc1` , give its reported Cmax. 2.01

----------
Measurement Protocol: Tmax in Swiss mouse at 3 mg/kg, po via gavage by LC-MS/MS analysis
Format: ADME, organism-based
Particulars: in vivo
Metric Name: Tmax (h)
Answer format: numeric, h implied, no suffix.

Illustrative cases are given below, each with its answer.
{"Chem Smiles": "CN(C)C(=O)c1ccc(Oc2nc(-c3cnc(N)s3)nc(N3CCOCC3)n2)cc1", "Data Value": 1.5}
{"Chem Smiles": "CN(C)C(=O)c1ccc(Oc2nc(-c3ccc(N)nc3)nc(N3CCOCC3)n2)cc1", "Data Value": 1.4}

Now turn to the next compound.
Give Tmax for the following compound: `CN(C)C(=O)c1ccc(Oc2nc(-c3ccnc4[nH]ccc34)nc(N3CCOCC3)n2)cc1` 1

----------
Measurement Protocol: Tmax in Swiss mouse at 1 mg/kg, po via gavage by LC-MS/MS analysis
Format: ADME, organism-based
Particulars: in vivo
Metric Name: Tmax (h)
Give just the numeric value; h need not be written.

# return recorded Tmax for entry `CN(C)C(=O)c1ccc(Oc2nc(-c3cnc(N)s3)nc(N3CCOCC3)n2)cc1` 1.33

----------
Measurement Protocol: Tmax in Swiss mouse at 10 mg/kg, po via gavage by LC-MS/MS analysis
Type: ADME, organism-based
Particulars: in vivo
Metric Name: Tmax
# output: number + unit

Supply measured Tmax of `CN(C)C(=O)c1ccc(Oc2nc(-c3cnc(N)s3)nc(N3CCOCC3)n2)cc1` in your reply. 1.67 h

----------
Measurement Protocol: AUC in Swiss mouse at 1 mg/kg, po via gavage by LC-MS/MS analysis
Type: ADME, organism-based
Design: dose 1 mg/kg
Particulars: in vivo
Metric Name: AUC (µM·h)
Express the result in µM·h but write the number alone.

Kindly indicate its recorded AUC. Item: `CN(C)C(=O)c1ccc(Oc2nc(-c3cnc(N)s3)nc(N3CCOCC3)n2)cc1` 26.9

----------
Measurement Protocol: Elimination half life in Swiss mouse at 1 mg/kg, po via gavage by LC-MS/MS analysis
Type: ADME, organism-based
Particulars: in vivo, read-out: beta t1/2 (converted)
Metric Name: half-life (h)
Give your result in h as a bare value.

State its half-life for this compound: `CN(C)C(=O)c1ccc(Oc2nc(-c3cnc(N)s3)nc(N3CCOCC3)n2)cc1` 2.66

----------
Measurement Protocol: Elimination half life in Swiss mouse at 10 mg/kg, po via gavage by LC-MS/MS analysis
Assay type: ADME, organism-based
Particulars: in vivo, read-out: beta t1/2 (converted)
Metric Name: half-life (h)
Please give a number only; it is taken to be in h.

Input `CN(C)C(=O)c1ccc(Oc2nc(-c3cnc(N)s3)nc(N3CCOCC3)n2)cc1` , output reported half-life. 2.52

----------
System Under Test: PI3-kinase p110-alpha/p85-alpha (Homo sapiens, UniProt P42336)
Sequence (P27986 whole entry): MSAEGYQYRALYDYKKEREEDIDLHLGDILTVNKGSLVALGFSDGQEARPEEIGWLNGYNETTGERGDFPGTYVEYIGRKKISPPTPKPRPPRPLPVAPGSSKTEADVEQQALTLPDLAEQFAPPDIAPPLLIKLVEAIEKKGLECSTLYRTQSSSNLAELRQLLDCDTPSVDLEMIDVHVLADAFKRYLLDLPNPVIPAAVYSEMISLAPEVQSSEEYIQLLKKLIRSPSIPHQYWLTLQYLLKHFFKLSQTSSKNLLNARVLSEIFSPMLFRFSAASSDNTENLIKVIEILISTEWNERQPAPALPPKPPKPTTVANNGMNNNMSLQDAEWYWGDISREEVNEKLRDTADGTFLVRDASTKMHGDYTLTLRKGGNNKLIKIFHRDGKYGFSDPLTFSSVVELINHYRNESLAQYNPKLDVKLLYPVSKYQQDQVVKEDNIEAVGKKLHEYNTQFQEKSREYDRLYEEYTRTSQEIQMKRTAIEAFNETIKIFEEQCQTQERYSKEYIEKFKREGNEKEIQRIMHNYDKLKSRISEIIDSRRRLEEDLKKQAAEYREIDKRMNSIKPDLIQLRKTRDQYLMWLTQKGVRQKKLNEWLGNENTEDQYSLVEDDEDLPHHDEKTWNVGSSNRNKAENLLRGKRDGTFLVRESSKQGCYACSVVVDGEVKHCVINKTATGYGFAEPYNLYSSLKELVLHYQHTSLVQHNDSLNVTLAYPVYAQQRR
Sequence (P42336 whole entry): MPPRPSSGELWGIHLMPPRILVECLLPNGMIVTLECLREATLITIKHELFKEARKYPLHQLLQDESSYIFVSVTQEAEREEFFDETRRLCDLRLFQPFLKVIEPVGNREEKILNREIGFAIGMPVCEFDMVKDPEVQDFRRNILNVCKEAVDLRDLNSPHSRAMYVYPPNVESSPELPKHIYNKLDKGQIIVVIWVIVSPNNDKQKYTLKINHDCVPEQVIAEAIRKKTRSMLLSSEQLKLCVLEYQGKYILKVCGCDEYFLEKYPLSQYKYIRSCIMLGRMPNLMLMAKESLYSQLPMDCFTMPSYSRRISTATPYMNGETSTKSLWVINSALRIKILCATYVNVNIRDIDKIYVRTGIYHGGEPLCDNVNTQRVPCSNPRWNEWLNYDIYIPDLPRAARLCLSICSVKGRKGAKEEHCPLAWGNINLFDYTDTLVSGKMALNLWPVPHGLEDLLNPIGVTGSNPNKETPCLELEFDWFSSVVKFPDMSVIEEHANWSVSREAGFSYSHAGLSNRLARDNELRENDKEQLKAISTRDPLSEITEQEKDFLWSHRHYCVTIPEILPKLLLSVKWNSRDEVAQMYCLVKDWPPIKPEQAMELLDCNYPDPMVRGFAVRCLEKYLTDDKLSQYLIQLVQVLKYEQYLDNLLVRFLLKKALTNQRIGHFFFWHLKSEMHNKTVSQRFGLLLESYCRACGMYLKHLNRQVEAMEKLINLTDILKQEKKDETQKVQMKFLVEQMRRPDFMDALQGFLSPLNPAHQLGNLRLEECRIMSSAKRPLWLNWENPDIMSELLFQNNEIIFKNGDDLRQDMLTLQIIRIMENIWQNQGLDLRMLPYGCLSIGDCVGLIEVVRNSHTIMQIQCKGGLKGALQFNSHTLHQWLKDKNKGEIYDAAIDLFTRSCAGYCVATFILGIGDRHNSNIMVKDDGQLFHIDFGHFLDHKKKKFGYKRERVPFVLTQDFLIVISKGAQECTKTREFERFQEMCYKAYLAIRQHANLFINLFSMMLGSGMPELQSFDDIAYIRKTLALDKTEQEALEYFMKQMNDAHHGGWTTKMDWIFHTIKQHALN
Measurement Protocol: Inhibition of recombinant human full-length N-terminal His-tagged p110 alpha/p85 alpha expressed in baculovirus expression system using PIP2 as substrate preincubated for 15 mins followed by substrate addition and measured after 60 mins by ADP HiLyte 647 tracer bound ADP2 antibody-Tb conjugate based HTRF assay
IC50 under 100 nM gets YES, anything at or over 100 nM gets NO.

Previously resolved entries follow.
{"Chem Smiles": "CN(C)C(=O)c1ccc(Oc2nc(-c3cnc(N)nc3)nc(N3CCOCC3)n2)cc1", "Assigned Label": "NO"}
{"Chem Smiles": "Cc1nc(N)ccc1-c1nc(Oc2ccc(C(=O)N(C)C)cc2)nc(N2CCOCC2)n1", "Assigned Label": "NO"}
{"Chem Smiles": "Cc1nc(N)sc1-c1nc(Oc2ccc(C(=O)N(C)C)cc2)nc(N2CCOCC2)n1", "Assigned Label": "NO"}
{"Chem Smiles": "CN(C)C(=O)c1ccc(Oc2nc(-c3cnc(N)[nH]3)nc(N3CCOCC3)n2)cc1", "Assigned Label": "NO"}
{"Chem Smiles": "CN(C)C(=O)c1ccc(Oc2nc(-c3cccc4[nH]nnc34)nc(N3CCOCC3)n2)cc1", "Assigned Label": "NO"}
{"Chem Smiles": "CN(C)C(=O)c1ccc(Oc2nc(-c3ccnc4[nH]ccc34)nc(N3CCOCC3)n2)cc1", "Assigned Label": "YES"}
{"Chem Smiles": "CN(C)C(=O)c1ccc(Oc2nc(-c3cnc(N)s3)nc(N3CCOCC3)n2)cc1", "Assigned Label": "YES"}
{"Chem Smiles": "CN(C)C(=O)c1ccc(Oc2nc(-c3cccc4[nH]ccc34)nc(N3CCOCC3)n2)cc1", "Assigned Label": "NO"}

In plain terms, does `Cc1cc(N)ncc1-c1nc(Oc2ccc(C(=O)N(C)C)cc2)nc(N2CCOCC2)n1` come in under 100 nM for IC50? NO

Does this compound meet the criterion IC50 < 100 nM? `Cc1cc(-c2nc(Oc3ccc(C(=O)N(C)C)cc3)nc(N3CCOCC3)n2)cnc1N` NO
